Recorded IC50 for the following compounds
System under test: Human ATX protein (Homo sapiens, UniProt Q13822)
Construct: made in house
Test details: ATX biochemical assay (FRET, FS-3 substrate)
Study conditions: FRET assay, FS-3 2 μM, ATX 1.0 μg/mL, 30 minutes preincubation, 2 hours reaction at room temperature; read-out: IC50
Counter-ions that a name gives are not always drawn.

Answered cases to consult:
Compound: CC(C)(C)OC(=O)N1CCC(CC(=O)N2CCc3c(C(F)(F)F)nn(Cc4ccc(Cl)cc4F)c3C2)CC1C(F)(F)F (centres unmarked) [Example 8-7]
Observed property: IC50
Result: ≤ 100 nM
//
Compound: O=C(CC1CCC(N2CCCC2)CC1)N1CCc2c(C(F)(F)F)nn(Cc3ccc(F)cc3)c2C1 (centres unmarked) [Example 22-9, TFA salt]
Observed property: IC50
Result: ≤ 100 nM
//
Compound: CC1(C(=O)O)CC(CC(=O)N2CCc3c(C(F)(F)F)nn(Cc4ccc(Cl)cc4F)c3C2)C1 (centres unmarked) [Example 6-18]
Observed property: IC50
Result: ≤ 100 nM

Enquiry: Param item = CC1CC(CC(=O)N2CCc3c(C(F)(F)F)nn(Cc4ccc(Cl)cc4F)c3C2)CCN1 (centres unmarked) [Example 9-5, TFA salt] ; retrieve measured IC50.
Return: ≤ 100 nM

Enquiry: # repeat for O=C(C[C@H]1CC[C@H](C(=O)O)CC1)N1CCc2c(C(F)(F)F)nn(Cc3cc(F)c(F)cc3F)c2C1 [Example 5-32]
Return: ≤ 100 nM

Enquiry: # repeat for CC(C)(C)OC(=O)N1CCC(CC(=O)N2CCc3c(C(F)(F)F)nn(Cc4ccc(Cl)cc4F)c3C2)CC1 [Example 8-2]
Return: ≤ 100 nM

Enquiry: # repeat for CCOC(=O)[C@H]1CC[C@H](CC(=O)N2CCc3c(C(F)(F)F)nn(Cc4ccsc4)c3C2)CC1 [Example 1-45]
Return: ≤ 100 nM

Enquiry: # repeat for O=C(C1CN2CCC1CC2)N1CCc2c(C(F)(F)F)nn(Cc3ccc(F)cc3)c2C1 (centres unmarked) [Example 1-35, TFA salt]
Return: 100 to 250 nM

Enquiry: # repeat for O=C(C[C@H]1CC[C@@H](C(=O)O)CC1)N1CCc2c(C(F)(F)F)nn(Cc3ccc(Cl)cc3)c2C1 [Example 7-6]
Return: ≤ 100 nM

----------
System under test: Human ATX protein (Homo sapiens, UniProt Q13822)
Construct: made in house
Test details: ATX biochemical assay (FRET, FS-3 substrate)
Study conditions: FRET assay, FS-3 2 μM, ATX 1.0 μg/mL, 30 minutes preincubation, 2 hours reaction at room temperature; read-out: IC50
pIC50: −log10 of the molar value. Where a name gives a salt, the structure may show the parent alone.
Observed property: pIC50

Compound: CC1(C)C(CC(=O)N2CCc3c(C(F)(F)F)nn(Cc4ccc(F)cc4)c3C2)CC1C(=O)O (mixture of isomers)
Observed property: pIC50
Result: ≥ 7.00
//
Compound: CC1(C)C(NCC(=O)N2CCc3c(C(F)(F)F)nn(Cc4ccc(Cl)cc4F)c3C2)CC1C(=O)O (centres unmarked) [Example 13-11, TFA salt]
Observed property: pIC50
Result: ≥ 7.00
//
Compound: CCOC(=O)C1CCCN(CC(=O)N2CCc3c(C(F)(F)F)nn(Cc4ccc(F)cc4)c3C2)CC1 (centres unmarked) [Example 12-16, TFA salt]
Observed property: pIC50
Result: ≥ 7.00

Enquiry: Param item = `O=C(O)[C@H]1CC[C@@H](C(=O)N2CCc3c(C(F)(F)F)nn(Cc4ccc(F)cc4)c3C2)CC1` ; retrieve measured pIC50.
Return: ≥ 7.00

Enquiry: # repeat for CC(c1ccc(F)cc1)n1nc(C(F)(F)F)c2c1CN(C(=O)C[C@H]1CC[C@@H](C(=O)O)CC1)CC2 (some centres unmarked)
Return: ≥ 7.00

Numbers sourced from patent US10144732B2.
